- Tested on: Epidermal growth factor receptor (Homo sapiens), P00533 [L861Q]
- Sequence (P00533 whole entry L861Q): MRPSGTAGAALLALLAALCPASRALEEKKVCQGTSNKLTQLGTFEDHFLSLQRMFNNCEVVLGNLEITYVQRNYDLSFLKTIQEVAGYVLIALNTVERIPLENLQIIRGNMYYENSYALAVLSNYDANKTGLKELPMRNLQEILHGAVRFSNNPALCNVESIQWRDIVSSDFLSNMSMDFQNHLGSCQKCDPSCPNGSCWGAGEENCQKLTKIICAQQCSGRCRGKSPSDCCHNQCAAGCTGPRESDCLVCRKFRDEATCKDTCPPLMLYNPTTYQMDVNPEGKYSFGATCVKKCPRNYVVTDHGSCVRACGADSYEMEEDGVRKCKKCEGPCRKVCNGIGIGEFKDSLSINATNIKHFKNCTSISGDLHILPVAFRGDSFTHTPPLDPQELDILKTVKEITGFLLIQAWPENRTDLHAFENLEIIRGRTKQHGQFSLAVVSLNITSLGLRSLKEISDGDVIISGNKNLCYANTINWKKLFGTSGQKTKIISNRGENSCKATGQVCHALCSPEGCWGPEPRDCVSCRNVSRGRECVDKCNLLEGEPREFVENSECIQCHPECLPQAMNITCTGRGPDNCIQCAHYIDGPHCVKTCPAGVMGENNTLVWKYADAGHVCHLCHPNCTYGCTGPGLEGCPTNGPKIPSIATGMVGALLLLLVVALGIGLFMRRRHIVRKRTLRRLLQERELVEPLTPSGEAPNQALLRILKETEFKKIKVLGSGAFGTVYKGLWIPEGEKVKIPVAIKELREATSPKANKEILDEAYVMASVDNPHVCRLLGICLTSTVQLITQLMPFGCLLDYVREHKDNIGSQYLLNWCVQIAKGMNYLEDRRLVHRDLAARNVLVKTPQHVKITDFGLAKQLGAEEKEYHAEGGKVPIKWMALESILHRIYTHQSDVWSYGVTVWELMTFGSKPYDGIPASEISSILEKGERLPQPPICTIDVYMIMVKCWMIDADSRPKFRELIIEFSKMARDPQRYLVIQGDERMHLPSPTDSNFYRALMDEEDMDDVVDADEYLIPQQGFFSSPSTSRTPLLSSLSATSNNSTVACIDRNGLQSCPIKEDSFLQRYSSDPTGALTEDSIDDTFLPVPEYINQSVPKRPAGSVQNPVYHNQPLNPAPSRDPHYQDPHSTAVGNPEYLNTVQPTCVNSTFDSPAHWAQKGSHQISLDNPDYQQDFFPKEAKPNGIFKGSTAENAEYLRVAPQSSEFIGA
- test_parameters: at 1 µM
In this section, each of the molecules is paired with its reported inhibition.
Give the value, in units of %, as a plain number.

Query: inhibition; subject: NS(=O)(=O)c1ccc(N/N=C2\C(=O)Nc3ccc(C(=O)NCCCn4ccnc4)cc32)cc1
5.08

Please report the recorded inhibition for COc1cc2ncn(-c3cc(OCc4cccs4)c(C(N)=O)s3)c2cc1OC .
7.86

###

- target_system: Non-receptor tyrosine-protein kinase TYK2 (Homo sapiens) (UniProt P29597)
- Sequence (P29597 whole entry): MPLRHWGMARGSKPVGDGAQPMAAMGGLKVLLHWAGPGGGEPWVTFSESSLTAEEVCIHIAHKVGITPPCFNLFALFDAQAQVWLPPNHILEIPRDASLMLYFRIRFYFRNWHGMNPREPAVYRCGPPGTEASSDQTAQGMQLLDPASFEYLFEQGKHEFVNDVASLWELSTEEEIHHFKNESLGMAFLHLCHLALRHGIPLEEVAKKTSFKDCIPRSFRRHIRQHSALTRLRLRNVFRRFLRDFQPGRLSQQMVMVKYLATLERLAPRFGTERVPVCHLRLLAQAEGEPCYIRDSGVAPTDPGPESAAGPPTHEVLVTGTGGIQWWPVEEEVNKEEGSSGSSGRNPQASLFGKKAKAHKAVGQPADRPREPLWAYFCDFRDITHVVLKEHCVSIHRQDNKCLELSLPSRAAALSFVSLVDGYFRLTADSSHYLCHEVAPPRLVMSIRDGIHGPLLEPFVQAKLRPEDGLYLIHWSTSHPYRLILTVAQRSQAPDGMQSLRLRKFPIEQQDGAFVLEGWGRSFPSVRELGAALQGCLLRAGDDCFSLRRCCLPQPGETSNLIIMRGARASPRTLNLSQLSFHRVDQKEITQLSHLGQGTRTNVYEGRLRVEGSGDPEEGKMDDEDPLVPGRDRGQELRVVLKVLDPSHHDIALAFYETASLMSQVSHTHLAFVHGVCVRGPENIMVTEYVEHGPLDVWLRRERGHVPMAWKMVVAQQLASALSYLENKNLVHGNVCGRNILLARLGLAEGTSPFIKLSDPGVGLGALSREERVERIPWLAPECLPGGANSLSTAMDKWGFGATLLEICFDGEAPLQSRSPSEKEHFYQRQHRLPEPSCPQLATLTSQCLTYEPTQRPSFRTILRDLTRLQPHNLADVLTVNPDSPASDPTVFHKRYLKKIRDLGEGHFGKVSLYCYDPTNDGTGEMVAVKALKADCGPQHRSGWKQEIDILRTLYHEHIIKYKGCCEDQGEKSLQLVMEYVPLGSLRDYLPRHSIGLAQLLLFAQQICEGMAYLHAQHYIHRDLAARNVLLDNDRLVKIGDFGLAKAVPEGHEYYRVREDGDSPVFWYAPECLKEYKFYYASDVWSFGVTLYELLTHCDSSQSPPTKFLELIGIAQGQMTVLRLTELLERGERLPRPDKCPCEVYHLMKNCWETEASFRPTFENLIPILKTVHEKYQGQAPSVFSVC
- test_parameters: at 0.1 µM
Recorded inhibition for the following compounds
Enter your answer as a number in %; do not include the unit.

smiles_record: NS(=O)(=O)c1ccc(N/N=C2\C(=O)Nc3ccc(C(=O)NCCCn4ccnc4)cc32)cc1
measure_unit: %
inhibition: -2.26

smiles_record: c1ccc(-c2n[nH]cc2-c2ccnc(-c3ccc(OCCN4CCOCC4)cc3)c2)nc1
measure_unit: %
inhibition: 4.24

smiles_record: Fc1ccc(-c2c(-c3ccncc3)nc3n2CCS3)cc1
measure_unit: %
inhibition: -0.68

smiles_record: C/C(Nc1ccc(S(N)(=O)=O)cc1)=C1/C(=O)Nc2ccccc21
measure_unit: %
inhibition: 1.41

As a next step, examine the compound that follows.
Lab request: please report inhibition under test system Non-receptor tyrosine-protein kinase TYK2 (Homo sapiens) (UniProt P29597) for COc1cc(C)c(N(C)C(=O)CN(C)C)cc1Nc1nc(Nc2cccc(F)c2C(N)=O)c2cc[nH]c2n1;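 note: each value is a mean of the inhibition readings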
0.02
